# Test system: NCI-H460 lung
# experimental details: NCI-60 one-dose screen, 48 h
# settings: 10 µM unless noted
Compounds without any hit were thinned out: in the full panel of roughly 83,000, 20% have a hit. Active and inactive are the calls of the source. The calls were made as follows: active = growth percent below 10; inactive = the rest.
Return exactly one item of active, inactive

Cc1c(-c2csc(-n3nc(C(F)(F)F)cc3C(F)(F)F)n2)no[n+]1[O-] = inactive

Query: // param item: Cc1ccc(CN2CCC(C(=O)Nc3ccc(-c4cc5ccccc5[nH]4)cc3)CC2)o1 ; yields the recorded call
Response: inactive

Query: State the result this test recorded for CCN1C(=O)N(c2ccccc2)C2NN=c3s/c(=C4\C(=O)N(C(C)C)c5ccccc54)c(=O)n3C21 (stereo unspecified) .
Response: active

Query: Hi, sorry to bother you, what did the test record for CNC(=O)c1cc(Oc2ccc(CC(=O)Nc3cc(C(C)(C)C)cn3C)cc2)ccn1 ?
Response: inactive

Query: What was the test verdict on O=C(/C=C/c1ccccc1)c1ccc(Nc2nc(NCCO)nc(Nc3ccc(Cl)cc3)n2)cc1 ?
Response: inactive

Query: Answer briefly: the call reported for Cc1sc2ncn(CC(=O)Nc3ccc(S(N)(=O)=O)cc3)c(=O)c2c1C in this assay.
Response: inactive

Query: Record request — test call for COc1ccc(N2C(=O)CC(c3cc(OC)c(OC)c(OC)c3)C3C2=NC(=O)N3C)cc1 (stereo unspecified)
Response: inactive

Query: How did this test come out for CC(=O)c1ccc(NC(=O)Nc2ccc(S(=O)(=O)Nc3ccc(Cl)nn3)cc2)cc1 ?
Response: inactive

Query: Could you check what this test reported for COc1cc(C2C3=C(COC3=O)N(CCO)c3cc4c(cc32)CCC4)cc(OC)c1O (stereo unspecified) ?
Response: active

Query: Outcome logged for COc1ccc(Cn2c(Br)c3c(c2Br)-c2nc(NC(=O)c4ccc(OC)cc4)sc2CC3)cc1 in this assay:
Response: inactive

Query: Hey, what did the test say about CCCSC1=NC2C(N(CC)C(=O)N2CC)N1/N=C/C=C/c1ccccc1[N+](=O)[O-] (stereo unspecified) ?
Response: active

Query: For this compound, state the assay outcome: O=C(CSc1ccc2nnc(-c3cccc(F)c3)n2n1)Nc1ccc2c(c1)OCO2
Response: inactive

Query: Short answer needed: outcome of this test for CN1C(=O)N(C)C2C1NN=c1s/c(=C\c3ccc([N+](=O)[O-])cc3)c(=O)n12 (stereo unspecified) ?
Response: inactive

Query: Answer briefly: the call reported for O=C1NC(=O)C(=Cc2cn(Cc3cn(Cc4ccc(Cl)cc4Cl)nn3)c3ccccc23)C(=O)N1 in this assay.
Response: inactive

Query: Hi team, can someone confirm the assay call for COc1cc(/C=C/C(=O)N2c3ccccc3CC2C)c(OC)c2c1OCO2 (stereo unspecified) ?
Response: inactive

Query: Field: outcome | Entry: COc1ccc(Br)c(/C=C2\SC(=Nc3ccc(O)cc3)NC2=O)c1
Response: inactive

###

# System: MDA-MB-231 breast
# experimental details: NCI-60 one-dose screen, 48 h
# settings: 10 µM unless noted
This is part of a sample that, as a whole, favours compounds with a hit. Of some 83,000 tested, about 20% had one in any assay. The source made the active and inactive calls. Rule for the calls: active = growth percent below 10; inactive = the rest.
Output constraint: value belongs to Y for active, N for inactive

Cc1nc(Nc2ccccn2)sc1C(=O)/C=C/c1ccc(Cl)cc1 = N
O=C(c1ccccc1)N(CCc1ccc(Cl)cc1)C(=S)N(C(=O)c1ccccc1)c1ccccc1 = N
O=c1c2cc(F)ccc2sc2c(NCCN3CCCC3)nc3ccccc3c12 = N

Query: Test call for this molecule, please: CN(C)/C=C1\SC(=Nc2ccc(Cl)cc2)NC1=O
Response: N

Query: What did the test return for N#C/C(=C\c1c(-c2ccccc2)[nH]c2ccccc12)C(=O)c1ccccc1 ?
Response: N

Query: # fetch the recorded call for COc1ccc(Cn2cc(Cn3c(=O)c(-c4nc5ccccc5[nH]4)cc4ccccc43)nn2)c(OC)c1OC here
Response: Y

Query: # fetch the recorded call for Clc1ccc(Oc2ccc(Nc3ncnc4onc(-c5ccccc5)c34)cc2)c(Cl)c1 here
Response: N

Query: Tell me the assay call for CCCCC1COc2cccc3c2N1C=C/C3=C\C(=O)N(C)c1ccccc1 (stereo not given) please.
Response: N

Query: # outcome recorded in this test, key = COc1ccc(N)c(-c2cc3c(c4c2[nH]c2ccc(OC)cc24)CCCC3)c1
Response: N

Query: Could you check what this test reported for CN1CCN(Cc2ccc(C(=O)Nc3cncc(C#Cc4cnc(N)c5ccccc45)c3)cc2C(F)(F)F)CC1 ?
Response: Y

Query: Name the outcome recorded for COc1ccc(C2C3=C(COC3=O)N(CCO)c3cc4c(cc32)CCC4)cc1 (stereo not given) in the assay.
Response: N

Query: What is the recorded call for this molecule in the test? O=c1oc2ccc(-c3ccc(F)cc3F)cc2c(=O)n1-c1cccc(C(F)(F)F)c1
Response: Y

Query: Write down the call the test reported for this molecule. Item: COc1cc2nc(NC3CCCC3)nc(NC3CCN(C(C)C)CC3)c2cc1OC
Response: N

Query: Which outcome was entered for the molecule COc1ccc(/C=C/C(=O)c2c(C)nc3ccccc3c2/C=C/c2ccccc2)cc1O in this test?
Response: N

Query: Tell me the assay call for O=C(NCc1ccccc1)C1CN(c2ccc(Cl)cc2)N(c2ccc(Cl)cc2)C1=O (stereo not given) please.
Response: N

Query: Tell me the assay call for Nc1ccc(-c2nn3c(CCC(=O)c4nc5ncccc5[nH]4)nnc3s2)c(O)c1 please.
Response: N

Query: How was COc1ccc(C2Nc3nc(OC)n(C)c(=O)c3N=C3c4ccccc4C(=O)C32)cc1 (stereo not given) classified in this test?
Response: N

Query: What is the recorded call for this molecule in the test? CC(=O)O[C@@H]1/C=C/C(=O)N[C@@H](C)CCC/C=C/[C@@H]2CCC[C@H]21
Response: N

Query: Fill in: this test's call for O=C(Nc1ccsc1C(=O)NC1CCCCC1)c1ccc(F)cc1 is ___
Response: N

Query: Could you please tell me the result logged for COc1ccc(/C=C2/SC(=O)N(CC(=O)N3CCN(c4cc5c(cc4F)c(=O)c(C(=O)O)cn5C4CC4)CC3)C2=O)cc1 in this assay?
Response: N

Query: Just curious, what result did COc1cc(-c2c3c(cn2S(=O)(=O)c2ccccc2)-c2nc(N)sc2CC3)cc(OC)c1OC get here?
Response: N

Query: Each molecule tested received a call. Report the one for O=C(Nc1ccc(Br)cc1F)c1cc(I)ccc1O .
Response: N

Query: Recorded test outcome, item CC(C)C[C@H](C(=O)N[C@H](C(N)=O)C(C)C)N1CC=CCN(OCc2ccccc2)S1(=O)=O
Response: N

Query: What did this assay record as the result for COc1cc(C(C)n2cc(-c3ccccc3)nn2)ccc1OC1CCCC1 (stereo not given) ?
Response: N

###

# System: COLO 205 colon
# experimental details: NCI-60 one-dose screen, 48 h (100 = growth as untreated, 0 = no growth, -100 = all killed)
# settings: 10 µM unless noted
# Experimental: Cells are grown in 96 well plates and exposed to the test compound for 48 hours. Compounds are tested at a single concentration, which is 10^-5 M for most compounds. The reported endpoint is percent growth (GI% or GIPRCNT), where numbers from 0 - 100% represent growth inhibition, and numbers from -100% - 0 represent cell death. For example, a value of 40 represents 60% growth inhibition. A value of 0 means no net growth occurred over the course of the experiment. […]
Compounds without any hit were thinned out: in the full panel of roughly 83,000, 20% have a hit.
Parameter: growth. Scope: all listed entries.
Kindly provide the numeric value in % only, without the unit symbol.

O=c1oc2ccc(-c3ccc(F)cc3F)cc2c(=O)n1-c1cccc(C(F)(F)F)c1 = 17.9
CCc1ccc(CNCC(O)c2ccccc2)cc1 (stereo not given) = 7.32

Query: Give measured growth for CCOC(=O)C1=CN(C)C=C(C(=O)OCC)C1c1cc(Br)c(OCC)c(OC)c1 (COLO 205 colon).
Response: -59.7

Query: For COLO 205 colon, give growth of the listed compound: Cc1ccc(C(=O)c2oc3ccc4c(C)cc(=O)oc4c3c2C)cc1
Response: -59.7

Query: # return growth for Cc1ccc(C)c(-c2csc(Nc3ccc(C)c(C)c3)n2)c1 , test system: COLO 205 colon
Response: -54.6

###

Below, each entry is listed alongside its reported growth.
# Test system: MCF7 breast
# experimental details: NCI-60 one-dose screen, 48 h (100 = growth as untreated, 0 = no growth, -100 = all killed)
# settings: 10 µM
The panel holds about 83,000 compounds, 20% with a hit somewhere; the sample as a whole holds those more often. The source made the active and inactive calls. The calls were made as follows: active = growth percent below 10; inactive = the rest.

In the examples that follow, each entry is paired with its recorded growth.
O=C(CSc1nc2ccccc2c(=O)n1-c1ccccc1)Nc1ccc(C(=O)/C=C/c2ccc(Cl)cc2)cc1 = 85.1% (inactive)
CCN1C(=O)N(CC)C2Nn3c(s/c(=C4\C(=O)N(C(C)C)c5ccccc54)c3=O)=NC21 (centres undefined) = 9% (active)
CCCCNc1nc(NC(C)(C)C)nc(NC(C)(C)C)n1 = 56% (inactive)
COC(=O)c1c2c(c(C)[n+]([O-])c1C)C(=O)C=C(NCc1ccc(F)c(F)c1)C2=O = -65.7% (active)
COc1ccc(OC)c(/C=C/C(=O)c2c(C)nc3ccccc3c2/C=C/c2ccccc2)c1 = 19.8% (inactive)
Cc1cccc2c(=O)c3c(sc12)c(N1CCNCC1)nc1ccccc13 = 26.7% (inactive)
Cn1c(=O)n(C)c2cc(CNCCNc3ccnc4cc(Cl)ccc34)ccc21 = 74.2% (inactive)
COc1ccc(C2Nc3nc(OC)n(C)c(=O)c3N=C3c4ccccc4C(=O)C32)cc1 (centres undefined) = 74.5% (inactive)

Now examine the next entry.
Query: Hello, please tell me recorded growth for this one: CNC(=O)c1cc(Oc2ccc(CC(=O)Nc3cc(C(C)(C)C)cn3C)cc2)ccn1
Response: 50.1% (inactive)

src = PubChem BioAssay (NCI)
